observable: melting point

[[record]]
molecule = "CC(C)c1ccc(N(Cc2ccc(N(C)C)cc2)C(=O)C2CCCc3ccc(C(C)C)cc32)cc1 (stereo unspecified)"
observable = "melting point"
result = "123 to 125 °C"


Given item `Nc1ccc(Cl)c(O)c1` , the value recorded as its melting point is 115 to 117 °C

Reported melting point of `Brc1ccc2c(c1)C1(OCCCO1)C1=NCCCN12` : 145 to 149 °C

The molecule identified as N#CCC1Cn2cccc2C1=O (stereo unspecified) registered its melting point at 68 °C

Record CCCCCCCCCCCC1N(C(C)=O)c2ccccc2-c2c([N+](=O)[O-])cnn21 (stereo unspecified) . Reported melting point: 83 to 85 °C

Given item CCC1(CCCCCl)C(=O)Nc2c(Cl)cc(Cl)cc21 (stereo unspecified) , the value recorded as its melting point is 65 to 67 °C
